pIC50 for assorted compounds
System: MV4-11
Test: Anti-leukemia activity against human MV4-11 cells assessed as decrease in cell proliferation incubated for 72 hrs by CCK-8 assay
Type: functional, cell-based
Conditions: MV4-11, 72 h
Scale note: pIC50 = -log10(concentration in M).

Reference set (2 entries):
{"columns": ["Chem smiles", "Assay metric", "Assay result"],
 "data": [
  ["O=c1nc(NCc2ccc(F)c(F)c2)[nH]c2c1CN(Cc1cc(F)cc(F)c1)CC2", "pIC50", 7.52],
  ["Cc1cccc(CNc2nc(=O)c3c([nH]2)CCN(Cc2ccccc2)C3)c1", "pIC50", 5.79]
]}

Req: Which pIC50 is listed for O=c1nc(NCc2ccc(Cl)cc2)[nH]c2c1CN(Cc1ccccc1)CC2 ?
Resp: 5.77

Req: Which pIC50 is listed for O=c1nc(NCc2ccccc2F)[nH]c2c1CN(Cc1ccccc1)CC2 ?
Resp: 6.03

====

Assay: Clearance in Sprague-Dawley rat at 5 mg/kg, iv measured upto 12 hrs by LC-MS analysis
Assay type: ADME, organism-based
Conditions: in vivo
clearance for assorted molecules
Number only, in mL/min/kg; omit the unit.

{"columns": ["Chem smiles", "clearance / mL/min/kg"],
 "data": [
  ["Cl.N#Cc1cccc(CN2CCc3[nH]c(NCc4ccc(F)cc4)nc(=O)c3C2)c1", 58.3]
]}

Next:
Req: Which clearance is listed for Cc1ccccc1CN1C(=O)C2=C(CCN(Cc3ccccc3)C2)N2CCN=C12.Cl ?
Resp: 96.7

====

Test system: K562
Assay: Anti-leukemia activity against human K562 cells assessed as decrease in cell proliferation incubated for 72 hrs by CCK-8 assay
Assay type: functional, cell-based
Conditions: K562, 72 h
Assay metric: IC50
Write the quantity with the unit trailing the number.

Req: Which IC50 is listed for N#Cc1cccc(CN2CCc3[nH]c(NCc4ccc(F)cc4)nc(=O)c3C2)c1 ?
Resp: 132 nM

====

Test system: MV4-11
Test: Anti-leukemia activity against human MV4-11 cells assessed as decrease in cell proliferation incubated for 72 hrs by CCK-8 assay
Format: functional, cell-based
Details: MV4-11, 72 h
Assay metric: IC50

Reference set (5 entries):
{"columns": ["Chem smiles", "Assay result"],
 "data": [
  ["O=c1nc(NCc2ccc(F)cc2)[nH]c2c1CN(Cc1ccccc1)CC2", "360 nM"],
  ["O=c1nc(NCc2ccccc2)[nH]c2c1CN(Cc1ccccc1Cl)CC2", "1030 nM"],
  ["CCNc1nc(=O)c2c([nH]1)CCN(Cc1ccccc1)C2", "> 10000 nM"],
  ["COc1cccc(CNc2nc(=O)c3c([nH]2)CCN(Cc2ccccc2)C3)c1", "> 10000 nM"],
  ["O=c1nc(NCc2ccc(Cl)c(Cl)c2)[nH]c2c1CN(Cc1ccccc1)CC2", "450 nM"]
]}

Req: Which IC50 is listed for O=c1nc(NCc2ccc3ccccc3c2)[nH]c2c1CN(Cc1ccccc1)CC2 ?
Resp: 2400 nM

Req: Which IC50 is listed for O=c1nc(NCc2ccc(Br)cc2)[nH]c2c1CN(Cc1ccccc1)CC2 ?
Resp: 930 nM

Req: Which IC50 is listed for O=c1nc(NCc2ccc3c(c2)OCO3)[nH]c2c1CN(Cc1ccc(Cl)c(Cl)c1)CC2 ?
Resp: > 10000 nM

Req: Which IC50 is listed for O=c1nc(NCc2ccc(C(F)(F)F)cc2)[nH]c2c1CN(Cc1ccccc1)CC2 ?
Resp: 1200 nM

Req: Which IC50 is listed for O=c1nc(NCc2ccccc2)[nH]c2c1CN(Cc1cccc(Cl)c1)CC2 ?
Resp: 930 nM

Req: Which IC50 is listed for O=c1nc(NCc2ccc3c(c2)OCO3)[nH]c2c1CN(Cc1cc(F)cc(F)c1)CC2 ?
Resp: > 10000 nM

Req: Which IC50 is listed for O=c1nc(NCc2ccccc2)[nH]c2c1CN(Cc1ccc(Cl)cc1)CC2 ?
Resp: 970 nM

Req: Which IC50 is listed for Cc1cccc(CN2CCc3[nH]c(NCc4ccccc4)nc(=O)c3C2)c1 ?
Resp: 2400 nM

Req: Which IC50 is listed for Cc1ccc(CNc2nc(=O)c3c([nH]2)CCN(Cc2ccccc2)C3)cc1 ?
Resp: 1610 nM

Req: Which IC50 is listed for O=c1nc(NCc2ccc(C(F)(F)F)cc2)[nH]c2c1CN(Cc1cc(F)cc(F)c1)CC2 ?
Resp: > 10000 nM

Req: Which IC50 is listed for O=c1nc(NCc2cccnc2)[nH]c2c1CN(Cc1ccccc1)CC2 ?
Resp: > 10000 nM

Req: Which IC50 is listed for O=c1nc(NCc2ccccc2)[nH]c2c1CN(Cc1ccc(Cl)c(Cl)c1)CC2 ?
Resp: 360 nM

Req: Which IC50 is listed for O=c1nc(NCc2ccc(F)c(F)c2)[nH]c2c1CN(Cc1ccccc1)CC2 ?
Resp: 480 nM

Req: Which IC50 is listed for COc1ccccc1CNc1nc(=O)c2c([nH]1)CCN(Cc1ccccc1)C2 ?
Resp: > 10000 nM

Req: Which IC50 is listed for O=c1nc(NCc2ccccc2)[nH]c2c1CN(Cc1cc(F)cc(F)c1)CC2 ?
Resp: 900 nM

Req: Which IC50 is listed for O=c1nc(NCc2ccccc2Cl)[nH]c2c1CN(Cc1ccccc1)CC2 ?
Resp: > 10000 nM

Req: Which IC50 is listed for Cc1ccccc1CNc1nc(=O)c2c([nH]1)CCN(Cc1cc(F)cc(F)c1)C2 ?
Resp: > 10000 nM

Req: Which IC50 is listed for O=c1nc(NCc2ccccc2Br)[nH]c2c1CN(Cc1ccccc1)CC2 ?
Resp: > 10000 nM

Req: Which IC50 is listed for COc1cccc(CN2CCc3[nH]c(NCc4ccccc4)nc(=O)c3C2)c1 ?
Resp: 1680 nM

Cited source: ChEMBL document CHEMBL5543151
